Protocol details: soluble on expression in E. coli; label from the status in PepcDB or PDB records
Reported property: soluble on expression in E. coli

Here are 8 sequences together with their reported answers.
{"columns": ["Sequence record", "Experimental value"],
 "data": [
  ["DGPYLQILEQPKQRGFRFRYVCEGPSHGGLPGASSEKNKKSYPQVKICNYVGPAKVIVQLVTNGKNIHLHAHSLVGKHCEDGVCTVTAGPKDMVVGFANLGILHVTKKKVFETLEARMTEACIRGYNPGLLVHSDLAYLQAEGGGDRQLTDREKEIIRQAAVQQTKEMDLSVVRLMFTAFLPDSTGSFTRRLEPVVSDAIYDSKAPNASNLKIVRMDRTAGCVTGGEEIYLLCDKVQKDDIQIRFYEEEENGGVWEGFGDFSPTDVHRQFAIVFKTPKYKDVNITKPASVFVQLRRKSDLETSEPKPFLYYPEIKDKEEVQRKRQK", "soluble"],
  ["MSLGIVIYGTRVIYPAEKKEVVVQLVNQGEQASLVQSWIDDGNTSLPPEKIQVPFMLTPPVARVAAESGQQIKIKKMPNSLPDNKESLFYLNVLDIPPNSQENAGKNVLKFAMQNRIKLIWRPSRIAAVTKDSFQRIGLFRSNKAVIMKNDTANWITVTDVKAGNTKINDQTIMLPPLSTQNINMKYASTSQYEVTIIDDNGNYISSKMNVKEGHHHHHH", "soluble"],
  ["MAHHHHHHMTDMELVEALNATEVPIARAVFLMISAVQDADAGDNKTWSCCHPDRSPAASPGSTTGWRSLRESPSGPAVIEVCYNDGADSFLTVKWVPMDKTHLVMITQRSDRERSHQPLNTSFCIEDEPLASLVLGQQTGSGASAAAMWTAESLGSALHRLRCLLQSAIGNTGRGSEQNEKFSAAQDSDCGRELPSPRRRNLVILNSTAVDPPLLLPLPCLPKAVCYLREWSRVLPAPVTAKRISSPVVEVLVWVAA", "soluble"],
  ["MGSDKIHHHHHHMSIKLDHRLLYLRVIEKIKSDIDDGVYKEGEKLPSEFELSKQLGVSRATLREALRILEDENIVIRKHGVGTFINARPPFTSGIEELYSVTEMIARAGMIPTSEVLSSEMVQPTERDRERFQLGPDELVYRIERIRLAGDVPVVYCVDKIPSHYIKNEEQFTSSTSLFDALEKELGRRVTHAVTHIEPRIDPKIAEQLHTDQPLLVLRQTHYDELDRSVLYSANYFRADKFDFHVIRKRV", "not soluble"],
  ["MNSPLAPVGVFDSGVGGLTVARAIIDQLPDEDIVYVGDTGNGPYGPLTIPEIRAHALAIGDDLVGRGVKALVIACNSASSACLRDARERYQVPVVEVILPAVRRAVAATRNGRIGVIGTRATITSHAYQDAFAAARDTEITAVACPRFVDFVERGVTSGRQVLGLAQGYLEPLQRAEVDTLVLGCTHYPLLSGLIQLAMGENVTLVSSAEETAKEVVRVLTEIDLLRPHDAPPATRIFEATGDPEAFTKLAARFLGPVLGGVQPVHPSRIH", "not soluble"],
  ["MTSISSEYKLPEKTNTVSTNNSSLGKDEFLKILMTQVQNQDPLNPIDDKEFISQMATFSSLEQMMNLNTTMTQFVENQDPFTTYVDWMGKEVSWTDGKSATDKTGTVSSVKHFKGNYYLVLDDGTEISPANVMSVGQSSKLEHHHHHH", "soluble"],
  ["MGSDKIHHHHHHMMQKPKVGQDVPEPSAGGMFQRDAMSPSVAHKPVLELKGNLLSLMVLYLFDSDRNLIEQQFTEKISGAKNFFKNAPIVIDLHALQNTSVPVDLSHLSDLFRKHGLVPVGVRGGNVQQQQAALNLSLGILPDAKPASSRGEPQTEVAVQATRDKVFTQPVRSGQQVAALQGDLVVLAAVNPGAEILAGKNIHVYGPLRGRAIAGVHGYSEARIFCRYFDAELVAVAGQYMLNEDFEDSVRGKPVHIFLENDRLKIQPFEI", "not soluble"],
  ["MGSDKIHHHHHHMTLPEPDFIARDPAVITAELIAQYEQMSGKTLYPAQVERLLIDLMAYRETLVRVGIQEAAKQNLVAYARAPMLDYLGQLVGVTRLPAQPARATLRFTLDAPLASPLPIPAGTRVESGDGVVAFATDEAATLPAGRTSLEIAATCQDAGSAGNGWQPGQIVNLMDDLGDMDVVVTNTAVTAGGVDEEDDERLRERIMLAPESFSNAGSRQAYRFHALRAHQSIVDVAVLSPTPGVVQLYPLLKTGLPDANMLALVQATCSAERVRPLTDYVEALAPTAIDYAIDVRLTVYPDVDGKAVKTQAQERLQAYAAERAGALGRDIVPSQIIAAVQVPGVYQATVASPGLQQVPEHGWARCTGVSVTLEGVSHG", "not soluble"]
]}

Quick one: soluble on expression in E. coli for MNVSVNIKNVTKEYRIYRTNKERMKDALIPKHKNKTFFALDDISLKAYEGDVIGLVGINGSGKSTLSNIIGGSLSPTVGKVDRNGEVSVIAISAGLSGQLTGIENIEFKMLCMGFKRKEIKAMTPKIIEFSELGEFIYQPVKKYSSGMRAKLGFSINITVNPDILVIDEALSVGDQTFAQKCLDKIYEFKEQNKTIFFVSHNLGQVRQFCTKIAWIEGGKLKDYGELDDVLPKYEAFLNDFKKKSKAEQKEFRNKLDESRFVIK ?
not soluble

# query: soluble on expression in E. coli of entry MGSDKIHHHHHHMVVALQYRTDLLEIHRFTRFESSLAHLGFRHFQPLASLRPWVHRYFHLQVATNLPQSIEQTFYPDGGTSLQFYFPAPSLNTNSDEPKVVFHCGQSLHSHAFVPGIEQMIVRFHPGGAFHLLGIAVQEIQQTSSHTVIEATQLHLPGLNQLLSQLADTNQPMQRIAQLEQWLLQLIKPQLDRGTWSTAGIVQMSLPRLIQPQTRLENFYGQLALSRRQFERRFKQETGLSPAQLQQLNRVKIARDLLSQSPELNLAQVAFDCGFYDQAHLHQHFVRVTQQTPGQYKKRKMSQISNLTQR
not soluble

Please give the measured soluble on expression in E. coli for this sequence: MDTQKLIEVLAREVLKEIAKRENQKLSENNEIISKKSVVTAFLGNDEVLKDELKKEASFMENIKLDSTWEEIGQCENKKRLVVSTLGINELIELSQGRKSVITEFLFNDGEVVLVEEGLEYKKYTKPAALINLYDGYLDKVREFGIKVVKRTEVKNVFCTKEKVYLKGLVTERRLRKLKLKNQTLEVDAKSKITSLAMDYIKENSIELCYERRQ
not soluble
